- testedOn: T1, CAPRIN-1 protein expressed on the membrane surface of human cancer cells (human, UniProt Q14444 2-709)
- T1 sequence (looked up): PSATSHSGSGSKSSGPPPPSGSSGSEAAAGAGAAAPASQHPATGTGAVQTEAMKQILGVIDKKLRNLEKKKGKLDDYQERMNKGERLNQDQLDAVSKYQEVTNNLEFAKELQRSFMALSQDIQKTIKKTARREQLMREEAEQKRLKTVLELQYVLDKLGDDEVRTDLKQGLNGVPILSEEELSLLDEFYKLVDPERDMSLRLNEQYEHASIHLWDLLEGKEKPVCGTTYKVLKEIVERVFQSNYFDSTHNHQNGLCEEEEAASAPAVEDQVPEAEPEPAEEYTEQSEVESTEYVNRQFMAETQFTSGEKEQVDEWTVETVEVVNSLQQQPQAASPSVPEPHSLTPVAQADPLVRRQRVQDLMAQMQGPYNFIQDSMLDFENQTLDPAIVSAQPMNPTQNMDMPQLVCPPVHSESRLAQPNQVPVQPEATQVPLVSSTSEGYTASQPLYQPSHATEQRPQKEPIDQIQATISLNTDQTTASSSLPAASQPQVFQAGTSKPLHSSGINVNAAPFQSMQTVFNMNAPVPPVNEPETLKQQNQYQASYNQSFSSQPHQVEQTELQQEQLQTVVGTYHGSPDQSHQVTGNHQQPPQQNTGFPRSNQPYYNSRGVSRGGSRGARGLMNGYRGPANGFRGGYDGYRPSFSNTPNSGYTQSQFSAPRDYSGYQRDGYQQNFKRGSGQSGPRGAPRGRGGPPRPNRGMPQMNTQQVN
- testDetails: cell-based or functional assay
property: ADCC cytotoxic activity (51Cr release) on SKOV3

Take a look at these entries with their results.
binder: humanized antibody #10 (antibody, V domains shown) VH: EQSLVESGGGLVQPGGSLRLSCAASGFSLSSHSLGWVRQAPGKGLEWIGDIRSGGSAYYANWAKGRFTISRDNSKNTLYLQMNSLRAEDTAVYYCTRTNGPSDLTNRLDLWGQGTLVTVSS VL: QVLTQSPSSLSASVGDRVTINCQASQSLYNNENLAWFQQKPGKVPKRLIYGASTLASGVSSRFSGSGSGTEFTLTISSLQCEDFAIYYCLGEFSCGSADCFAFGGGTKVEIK
obsValue: ≥ 35%
--
binder: humanized antibody #6 (antibody, V domains shown) VH: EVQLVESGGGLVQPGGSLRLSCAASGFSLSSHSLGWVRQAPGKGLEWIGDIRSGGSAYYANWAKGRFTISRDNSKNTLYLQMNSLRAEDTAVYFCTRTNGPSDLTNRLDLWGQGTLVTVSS VL: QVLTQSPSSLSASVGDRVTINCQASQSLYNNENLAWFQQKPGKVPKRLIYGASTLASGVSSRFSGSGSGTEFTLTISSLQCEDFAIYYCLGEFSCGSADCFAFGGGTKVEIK
obsValue: ≥ 35%
--
binder: humanized antibody #7 (antibody, V domains shown) VH: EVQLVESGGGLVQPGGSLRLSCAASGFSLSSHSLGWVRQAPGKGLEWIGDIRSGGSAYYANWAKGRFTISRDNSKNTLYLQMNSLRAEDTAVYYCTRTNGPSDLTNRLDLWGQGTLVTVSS VL: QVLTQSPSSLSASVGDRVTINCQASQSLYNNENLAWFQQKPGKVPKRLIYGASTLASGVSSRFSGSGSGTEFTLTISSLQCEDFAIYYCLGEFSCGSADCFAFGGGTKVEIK
obsValue: ≥ 35%
--
binder: humanized antibody #8 (antibody, V domains shown) VH: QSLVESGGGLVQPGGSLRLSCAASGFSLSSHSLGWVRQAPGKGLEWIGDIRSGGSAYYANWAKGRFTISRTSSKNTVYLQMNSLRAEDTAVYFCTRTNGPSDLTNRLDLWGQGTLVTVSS VL: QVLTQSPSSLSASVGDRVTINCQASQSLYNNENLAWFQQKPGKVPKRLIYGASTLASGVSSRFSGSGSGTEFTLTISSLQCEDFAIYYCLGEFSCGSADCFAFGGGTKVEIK
obsValue: ≥ 27%
--
binder: humanized antibody #5 (antibody, V domains shown) VH: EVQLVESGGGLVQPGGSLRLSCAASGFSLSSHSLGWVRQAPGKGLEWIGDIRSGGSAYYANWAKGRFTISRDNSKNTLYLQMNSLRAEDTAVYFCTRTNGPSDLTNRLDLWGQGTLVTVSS VL: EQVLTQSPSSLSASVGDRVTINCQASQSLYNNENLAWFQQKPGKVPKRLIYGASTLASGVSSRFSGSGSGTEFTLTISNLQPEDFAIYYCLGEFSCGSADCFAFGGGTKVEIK
obsValue: ≥ 31%
--
binder: humanized antibody #3 (antibody, V domains shown) VH: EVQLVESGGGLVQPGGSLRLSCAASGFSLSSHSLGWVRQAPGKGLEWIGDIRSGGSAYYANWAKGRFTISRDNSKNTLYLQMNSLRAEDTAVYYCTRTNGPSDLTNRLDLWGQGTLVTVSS VL: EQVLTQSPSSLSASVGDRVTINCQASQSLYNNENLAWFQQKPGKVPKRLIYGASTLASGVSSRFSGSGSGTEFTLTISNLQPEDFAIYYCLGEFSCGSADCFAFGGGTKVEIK
obsValue: ≥ 31%
--
binder: humanized antibody #4 (antibody, V domains shown) VH: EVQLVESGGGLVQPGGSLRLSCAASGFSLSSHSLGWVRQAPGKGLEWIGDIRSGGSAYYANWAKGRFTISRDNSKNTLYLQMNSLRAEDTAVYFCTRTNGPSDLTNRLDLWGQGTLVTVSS VL: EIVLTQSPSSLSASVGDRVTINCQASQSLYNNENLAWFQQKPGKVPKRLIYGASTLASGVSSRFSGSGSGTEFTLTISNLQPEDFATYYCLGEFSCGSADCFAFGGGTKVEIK
obsValue: ≥ 31%
--
binder: human-rabbit chimeric anti-CAPRIN-1 antibody (antibody, V domains shown) VH: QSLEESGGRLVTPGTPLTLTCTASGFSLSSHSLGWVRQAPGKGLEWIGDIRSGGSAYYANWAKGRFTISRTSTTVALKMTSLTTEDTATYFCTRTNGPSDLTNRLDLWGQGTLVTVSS VL: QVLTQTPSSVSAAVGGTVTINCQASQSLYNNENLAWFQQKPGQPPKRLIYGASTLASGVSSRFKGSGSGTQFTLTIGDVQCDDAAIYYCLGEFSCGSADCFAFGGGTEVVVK
obsValue: ≥ 27%

Input humanized antibody #9 (antibody, V domains shown) VH: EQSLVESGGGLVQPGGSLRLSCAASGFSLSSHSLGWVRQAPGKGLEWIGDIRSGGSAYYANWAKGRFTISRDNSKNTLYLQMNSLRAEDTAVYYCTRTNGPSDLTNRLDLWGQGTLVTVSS VL: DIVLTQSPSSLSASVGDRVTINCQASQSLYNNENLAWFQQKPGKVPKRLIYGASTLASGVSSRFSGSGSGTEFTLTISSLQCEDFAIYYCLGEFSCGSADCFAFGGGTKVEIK . Output ADCC cytotoxic activity (51Cr release) on SKOV3: ≥ 27%

Input humanized antibody #1 (antibody, V domains shown) VH: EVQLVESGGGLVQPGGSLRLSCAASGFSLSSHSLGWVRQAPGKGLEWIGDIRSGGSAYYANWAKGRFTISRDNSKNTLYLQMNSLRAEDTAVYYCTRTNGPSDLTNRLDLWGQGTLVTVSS VL: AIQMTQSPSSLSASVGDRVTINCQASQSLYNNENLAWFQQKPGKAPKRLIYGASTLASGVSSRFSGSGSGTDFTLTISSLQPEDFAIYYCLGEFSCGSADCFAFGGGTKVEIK . Output ADCC cytotoxic activity (51Cr release) on SKOV3: ≥ 27%

Input humanized antibody #0 (antibody, V domains shown) VH: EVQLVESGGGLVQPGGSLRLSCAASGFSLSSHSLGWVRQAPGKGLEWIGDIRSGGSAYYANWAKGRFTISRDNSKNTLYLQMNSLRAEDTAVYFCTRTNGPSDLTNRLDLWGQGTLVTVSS VL: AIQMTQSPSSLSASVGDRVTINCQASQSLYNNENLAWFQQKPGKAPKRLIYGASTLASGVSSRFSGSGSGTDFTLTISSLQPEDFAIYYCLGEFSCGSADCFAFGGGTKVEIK . Output ADCC cytotoxic activity (51Cr release) on SKOV3: ≥ 27%
